# System: MRSA ATCC BAA-2313
# measurement notes: MIC determination in broth
# Assay type: cell-based, Staphylococcus aureus
# assay conditions: STIP3 variants, highest conc. tested 100 μg/mL; cation-adjusted MH broth, ~10^5 CFU/mL, 2-fold dilution series, 37°C, 16 h
Would you mind telling me the reported MIC, S. aureus ATCC BAA 2313 (SCCmec XI) of each entry?
Report the figure in µg/mL without appending any unit label.

Query block: Write MIC, S. aureus ATCC BAA 2313 (SCCmec XI) of TVGGLVKWILDVVKKFA [STIP3-9, rationally designed STIP3-1 variant] ; system used: MRSA ATCC BAA-2313
Result block: 25

Query block: Write MIC, S. aureus ATCC BAA 2313 (SCCmec XI) of TVRALVKWILRTVAKFA [STIP3-20, rationally designed STIP3-1 variant] ; system used: MRSA ATCC BAA-2313
Result block: 50

Query block: Write MIC, S. aureus ATCC BAA 2313 (SCCmec XI) of TVAGLVKWILATVKKFA [STIP3-15, rationally designed STIP3-1 variant] ; system used: MRSA ATCC BAA-2313
Result block: 50

Query block: Write MIC, S. aureus ATCC BAA 2313 (SCCmec XI) of TVGGLVKWILAAVKKFA [STIP3-12, rationally designed STIP3-1 variant] ; system used: MRSA ATCC BAA-2313
Result block: 25

Query block: Write MIC, S. aureus ATCC BAA 2313 (SCCmec XI) of TVKGLVKWILATVKKFA [STIP3-16, rationally designed STIP3-1 variant] ; system used: MRSA ATCC BAA-2313
Result block: 100

Query block: Write MIC, S. aureus ATCC BAA 2313 (SCCmec XI) of TVKALVKWILKTVAKFA [STIP3-19, rationally designed STIP3-1 variant] ; system used: MRSA ATCC BAA-2313
Result block: 25

----------
# System: MRSA ATCC 33592
# measurement notes: MIC determination in broth
# Format: cell-based, Staphylococcus aureus
# assay conditions: Table S5; STIP3 variants, highest conc. tested 100 μg/mL; cation-adjusted MH broth, ~10^5 CFU/mL, 2-fold dilution series, 37°C, 16 h
No end group written: not given here.
readout name: MIC, S. aureus ATCC 33592 (SCCmec III) (µg/mL)
Report the figure in µg/mL without appending any unit label.

Query block: Write MIC, S. aureus ATCC 33592 (SCCmec III) of TVGGLVKWILATVKKFA [STIP3-2] ; system used: MRSA ATCC 33592
Result block: 50

Query block: Write MIC, S. aureus ATCC 33592 (SCCmec III) of TVRALVRWILRTVARFA [STIP3-23, rationally designed STIP3-1 variant] ; system used: MRSA ATCC 33592
Result block: 25

Query block: Write MIC, S. aureus ATCC 33592 (SCCmec III) of TVAGLVKWILATVKKFA [STIP3-15, rationally designed STIP3-1 variant] ; system used: MRSA ATCC 33592
Result block: 12.5

Query block: Write MIC, S. aureus ATCC 33592 (SCCmec III) of TVKALVKWILKTVAKFW-NH2 [STIP3-31, rationally designed STIP3-1 variant, C-terminal amide] ; system used: MRSA ATCC 33592
Result block: 25

----------
# Test system: MRSA ATCC 33592
# measurement notes: MIC determination in broth
# Format: cell-based, Staphylococcus aureus
# assay conditions: Table S5; STIP3 variants, highest conc. tested 100 μg/mL; cation-adjusted MH broth, ~10^5 CFU/mL, 2-fold dilution series, 37°C, 16 h
Would you mind telling me the reported MIC, S. aureus ATCC 33592 (SCCmec III) of each entry?
Report the figure in µg/mL without appending any unit label.

Query block: Tell us which MIC, S. aureus ATCC 33592 (SCCmec III) value is on record for TVKALVKWILKTVAKFA [STIP3-19, rationally designed STIP3-1 variant]
Result block: 25

Query block: Tell us which MIC, S. aureus ATCC 33592 (SCCmec III) value is on record for TVKKLVKWILKTVKKFA [STIP3-18, rationally designed STIP3-1 variant]
Result block: 100

Query block: Tell us which MIC, S. aureus ATCC 33592 (SCCmec III) value is on record for TVGGLVKWILAAVKKFA [STIP3-12, rationally designed STIP3-1 variant]
Result block: 25

Query block: Tell us which MIC, S. aureus ATCC 33592 (SCCmec III) value is on record for TVRALVKWILRTVAKFA [STIP3-20, rationally designed STIP3-1 variant]
Result block: 25
